Kindly supply the reported EC50 values for the records listed here.
- Target or test system: T1, recombinant cynomolgus monkey TNFR2 (Cyno. TNFR2) (Sino Biological, 90102-C021) (cynomolgus monkey, UniProt A0A2K5VET2 132-366)
- T1 sequence: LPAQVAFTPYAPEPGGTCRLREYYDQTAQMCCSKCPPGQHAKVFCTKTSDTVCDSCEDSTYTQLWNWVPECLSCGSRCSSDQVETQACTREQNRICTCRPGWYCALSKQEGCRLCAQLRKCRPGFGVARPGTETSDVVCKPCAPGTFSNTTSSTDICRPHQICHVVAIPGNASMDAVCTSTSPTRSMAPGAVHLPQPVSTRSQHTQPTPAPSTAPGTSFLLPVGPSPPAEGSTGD
- Measurement notes: ELISA, coated cynomolgus TNFR2
Please give a number only; it is taken to be in mg/L.

Ask: For the binder shown here, anti-human TNFR2 mouse monoclonal antibody 7F2 (antibody, V domains shown) VH: QVTLKESGPGILQPSQTLSLTCSFSGFSLNTFGLGVGWIRQPSGKGLEWLTHIWWNDDKYYNPALKSRLTISRDTSENLVFLKIANVDTADTATYYCARIEGLRRFDYWGQGTTLTVSS VL: DIQMTQSPSSLSASLGGKVTITCKTSQDINKFIAWYQHKPGKGPRLLIHYTSTLQPGIPSRFSGSGSGRDYSFSISDLEPEDIATYYCLQYANLWAFGGGTKLEIK , give the reported EC50.
Result: 0.119

Ask: For the binder shown here, anti-human TNFR2 mouse monoclonal antibody 27F6 (antibody, V domains shown) VH: EVQLQQSGTVLARPGASVKMSCKTSGYTFTSYWMHWVKQRPGQGLEWIGTIYPGNSDTSYNQKFKGKAKLTAVTSASTAYMELNSLTNEDSAVFYCTRENLLLRSYFFDYWGQGTTLTVSS VL: DIVMTQSPASLAVSLGQRATISCKASQSVDYDGDSYLNWYQQKPGQPPKLLIYAASNLPSGIPARFSGSGSGTDFTLNIHPVEEEDAATYYCQQSNEDPRTFGGGTKLEIK , give the reported EC50.
Result: 0.0756

Ask: For the binder shown here, anti-human TNFR2 mouse monoclonal antibody 29A1 (antibody, V domains shown) VH: QVQLQQSGAEVVRPGASVTLSCKASGYTFSDYEMHWVKQTPVHGLEWIGAIDPETGDTAYNQKFKDKARVTADKSSSTAYMELRSLTSEDSAVYYCTRDIHYYGSSLSYFDYWGQGTTLTVSS VL: DIVMTQSQKFMSTSVGDRVSVTCKASQNVGTNVAWYQQKPGQSPKVMIYSASYRYSGAPDRFTGSGSGTDFTLTVNNVQSEDLAEYFCQQYKTYPYTFGGGTKLEIE , give the reported EC50.
Result: 0.0562

Ask: For the binder shown here, anti-human TNFR2 mouse monoclonal antibody 16D2 (antibody, V domains shown) VH: EVQLQQSEPELVKPGASVKIPCKASGYTFTDYNMDWVKQSHGKSLEWIGDINPNNGVTIYNQKFKGKATLTVDKSSSTAYMELRSLTSEDTAVYYCVILEYFDYWGQGTTLTVSS VL: DIVMTQSTSSMSVSLGDTVSITCHASQGISSNIGWLQQKPGKSFKGLIYHGTKLEDGVPSRFSGSGSGADYSLTISSLESEDFADYYCVQYAQFPRTFGGGTKLEIK , give the reported EC50.
Result: 0.0371

Ask: For the binder shown here, anti-human TNFR2 mouse monoclonal antibody 12E12 (antibody, V domains shown) VH: EVQLQQSGAELVKPGASVKLSCTVSGFNIKDFYIHWVKQRPEQGLEWIGRVDPEDGNTEYAPNFQDRATMTTDTSSNTAYLQLSSLTSVDTAVYYCSTWDGFSYFDYWGLGTTLTVSS VL: QAVVTQESALTTSPGETVTLTCRSSTGPVTTNNYANWVQEKPDHLFTGLIGGTNDRAPGVPARFSGSLIGDKTALTITGTQTEDEAVYFCALWYRNHWVFGGGTKLTVL , give the reported EC50.
Result: 0.139

src = patent US20240392024A1
